Test system: KM20L2 colon
Experiment: NCI tumour cell line growth inhibition, 48 h

COMPOUND	TGI
CC(C)(C)c1cc(O)c2c(c1O)C(=O)CCC2	> 100 µM
CC(/C=C/c1ccccc1)=N\N=C(C)\C=C\c1ccccc1	> 100 µM
Cc1cc(Cl)ccc1NC(=O)C1C(=O)C(=O)N(c2ccc(Cl)cc2C)C1=O (configuration not stated)	> 100 µM
NCc1ccc(O)c(O)c1O	> 80.9 µM
Cn1ncc2c(=O)[nH]c(-c3ccccc3)nc21	> 100 µM
CC(=O)OC1COC(n2c(O)c(N=Nc3ccc([N+](=O)[O-])cc3)c3cc(Br)c([N+](=O)[O-])cc32)C(OC(C)=O)C1OC(C)=O (configuration not stated)	> 100 µM
COC(=O)C12OCC34C(CC5C(C)C6=CC(=O)OC6=CC5(C)C3C(O)C1O)OC(=O)C(OC(C)=O)C24 (configuration not stated)	33.3 µM
Cc1ccc([N+]2=NC(c3ccc([N+](=O)[O-])cc3)=NN(c3ccccc3)C2)cc1	> 100 µM
NC(CCCNc1ccc(O)cc1)C(=O)O (configuration not stated)	> 100 µM
COC(=O)c1ccc(CS(=O)(=O)c2ccccc2)cc1	> 100 µM
N#CC1=C(c2ccccc2)NN(Cc2ccccc2)C(c2ccc(Cl)cc2)CC1=O (configuration not stated)	75.8 µM
CC[C@@]1(O)C(=O)OCc2c1cc1n(c2=O)Cc2cc3c([N+](=O)[O-])c(O)ccc3nc2-1	38.4 µM
SCc1ccc(-c2ccc(CS)cc2)cc1	53 µM
COc1ccc(/C=C/C(=O)c2c(-c3ccccc3)nn(C)c(=O)c2N2CCCC2)cc1	> 100 µM
COc1ccc2c(c1)[n+]([O-])c(/C(C)=N/NC(N)=S)c(C)[n+]2[O-]	> 100 µM
COc1ccc(C(=C(C#N)C#N)c2ccc(OC)cc2)cc1	> 100 µM
C/C(=N\N)C(CN1CCCCC1)C(c1ccccc1)c1c(O)c2ccccc2oc1=O (configuration not stated)	> 100 µM
Cc1cc(N(CCC#N)CCC#N)ccc1/C=C(\NC(=O)/C=C/c1ccccc1)NC(=O)Nc1ccccc1C	> 100 µM
CCCCN1C(=O)C2c3[nH]c4ccccc4c3C3CCCCC3C2C1=O (mixture of isomers)	> 100 µM
CCOc1cccc2sc(N)nc12	> 100 µM
CN(C(=N)c1ccccc1)c1ccccc1	> 100 µM
C[C@]12CC[C@H](OC(=O)Cc3ccc(N(CCCl)CCCl)cc3)CC1CC[C@@H]1C2CC[C@]2(C)NC(=O)CCC12 (some centres not stated)	23.7 µM
